Value source: patent US9018214B2

- Study system: BIR3 domain of human cIAP-1 (residues 267-363) (Homo sapiens (Human))
- Assay overview: cIAP-1 in vitro competitive displacement binding assay (fluorescence polarization; Probe A AVPIK(5&6FAM)-amide or Probe B AbuRPFK(5&6FAM)-amide)
- Conditions: Probe B AbuRPFK(5&6FAM)-amide; read-out: IC50 or PI cIAP1: IC50
Counter-ions that a name gives are not always drawn.
Experimental endpoint: pIC50
Just so you know, pIC50 here is -log10 of the concentration in molar units; reply with that number alone.

Example molecules with recorded pIC50:
- Molecule: "COC[C@H]1CN[C@H](C)CN1CC(=O)N1CC(C)(C)c2cc(F)c(S(=O)(=O)c3ccccc3)cc21 [Example 58, hydrochloride salt]"
  pIC50: 7.35
- Molecule: "COC[C@H]1CN[C@H](C)CN1CC(=O)N1C[C@@](C)(c2cc(C)no2)c2ccc(Cc3ccccc3)cc21 [Example 175, hydrochloride]"
  pIC50: 7.96
- Molecule: "C[C@@H]1CN(CC(=O)N2CC3(Cc4ccccc4C3)c3ccc(C#N)cc32)[C@@H](C(=O)N2CCOCC2)CN1 [Example 109, hydrochloride salt]"
  pIC50: 6.82
- Molecule: "C[C@@H]1CN(CC(=O)N2C[C@@](C)(c3ccccc3)c3ccc(C#N)cc32)[C@@H](Cn2cccn2)CN1"
  pIC50: 6.77
- Molecule: "COC[C@H]1CN[C@H](C)CN1CC(=O)N1CC(C)(C)c2cnc(Oc3c(C)cccc3C)cc21 [Example 119, hydrochloride]"
  pIC50: 7.02

Quick one: pIC50 for `COC[C@H]1CN[C@H](C)CN1CC(=O)N1CC(C)(C)c2cc(-c3nc(C)no3)c(Cl)cc21` ?
6.55

###

- Study system: BIR3 domain of human XIAP (residues 252-350) (Homo sapiens (Human), UniProt P98170)
- Assay overview: XIAP in vitro competitive displacement binding assay (fluorescence polarization)
- Conditions: read-out: IC50 or PI Xiap: IC50
Structures can show the parent of a compound that is named as a salt.
Experimental endpoint: pIC50
Kindly note that pIC50 refers to -log10 of the concentration in mol/L and answer with the value alone.

- Compound: "COC(=O)c1ccc2c(c1)N(C(=O)CN1CCN[C@H](C)C1)CC2 [Example 15]"
  pIC50: 4.72
- Compound: "COC[C@H]1CN[C@H](C)CN1CC(=O)N1CC(C)(C)c2cnc(C#N)cc21 [Example 103]"
  pIC50: 6.38

What measured pIC50 goes with CCC(F)(F)c1cnc2c(c1)N(C(=O)CN1C[C@@H](C)NC[C@@H]1CN1CCOC[C@H]1COC)CC2(C)C [Example 256, dihydrochloride] ?
7.28

Query CC[C@H]1CN[C@H](C)CN1CC(=O)N1CC(C)(C)c2cnc(Cc3ccccc3)cc21 [Example 91, hydrochloride salt] next
6.54

What would you report for COC[C@H]1CN[C@H](C)CN1CC(=O)N1CC(C)(c2cccnc2)c2ccc(Cc3ccccc3)cc21 (stereo partly shown) [Example 163, hydrochloride] ?
6.80

Same read-out for CCS(=O)(=O)c1ccc2c(c1)N(C(=O)CN1C[C@@H](C)NC[C@@H]1COC)CC2(C)C [Example 59, dihydrochloride salt] ?
6.51

What about this compound? CC(C)C(F)(F)c1cc2c(cn1)C(C)(C)CN2C(=O)CN1C[C@@H](C)NC[C@@H]1CN1CCCC1=O [Example 211, hydrochloride]
7.34

Entry to check: COC[C@H]1CN[C@H](C)CN1CC(=O)N1C[C@@](C)(c2ccccc2)c2ccc(C#N)cc21 [Example 139]
6.64

Try this compound too: C[C@@H]1CN(CC(=O)N2CC(C)(C)c3ccc(Cc4ccccc4)cc32)[C@@H](C(=O)N2CCOCC2)CN1 [Example 111, hydrochloride salt]
7.13

Could you do the same for C[C@@H]1CN(CC(=O)N2CC(C)(C)c3ncc(Cc4ccc(F)cc4)cc32)[C@@H](CN2C[C@@H](C)O[C@@H](C)C2)CN1 [Example 243, dihydrochloride] , please?
7.33

// same read-out, input: CCC1(C)CN(C(=O)CN2C[C@@H](C)NC[C@@H]2COC)c2cc(Cl)ccc21 (stereo partly shown) [Example 123, hydrochloride]
5.89

Same question, C[C@@H]1CN(CC(=O)N2CC(C)(C)c3ccc(S(=O)(=O)c4ccccc4)cc32)CCN1 [Example 43, hydrochloride salt] this time
6.19

Cool, now COC[C@H]1CN[C@H](C)CN1CC(=O)N1CC(C)(C)c2ccc(S(=O)(=O)N(C)C)cc21 [Example 68, dihydrochloride salt]
6.64

###

- System: EVSA-T (human breast carcinoma)
- Assay overview: Anti-proliferative activity, Alamar Blue assay, EVSA-T
- Format: cell-based
- Conditions: Homo sapiens, EVSA-T, read-out: EVSA-T prolif: % inhibition
Structures can show the parent of a compound that is named as a salt.
Experimental endpoint: inhibition at 10 µM (%)
Reply with just the number (in %).

Before answering, review these 3 worked examples.
- Molecule: "C[C@@H]1CN(CC(=O)N2CCc3cnc(Cc4ccccc4)cc32)CCN1 [Example 35, hydrochloride salt]"
  Endpoint unit: "%"
  inhibition at 10 µM: 28
- Molecule: "CNS(=O)(=O)c1ccc2c(c1)N(C(=O)CN1C[C@@H](C)NC[C@@H]1COC)CC2(C)C [Example 61, dihydrochloride salt]"
  Endpoint unit: "%"
  inhibition at 10 µM: 0
- Molecule: "COC[C@H]1CN[C@H](C)CN1CC(=O)N1CC(C)(C)c2ccc(S(=O)(=O)NC(C)C)cc21 [Example 69, dihydrochloride salt]"
  Endpoint unit: "%"
  inhibition at 10 µM: 54

Consider now this further molecule.
Record request: inhibition at 10 µM value, item C[C@@H]1CN(CC(=O)N2CC(C)(C)c3cc(F)c(S(=O)(=O)N4CCCC4)cc32)CCN1 [Example 49, dihydrochloride salt]
2

###

- Study system: BIR3 domain of human XIAP (residues 252-350) (Homo sapiens (Human))
- Assay overview: XIAP in vitro competitive displacement binding assay (fluorescence polarization)
- Conditions: read-out: IC50 or PI Xiap: IC50
Counter-ions that a name gives are not always drawn.
Experimental endpoint: pIC50
To interpret pIC50, take it as minus log10 of a concentration measured in moles per litre.

# annotated cases, reported pIC50 shown
- Compound: "COC[C@H]1CN[C@H](C)CN1CC(=O)N1CC(C)(C)c2cnc(C3CCCC3)cc21 [Example 92, hydrochloride salt]"
  pIC50: 5.92
- Compound: "C[C@@H]1CN(CC(=O)N2CC(C)(c3ccccc3)c3ccc(C#N)cc32)[C@@H](C(=O)N2CCOCC2)CN1 (stereo partly drawn) [Example 149, hydrochloride]"
  pIC50: 7.26

Consider the compound C[C@@H]1CN(CC(=O)N2CCc3ccc(S(=O)(=O)c4ccccc4)cc32)CCN1 [Example 33, hydrochloride salt] and give its measured pIC50.
5.92

Now give it for C[C@@H]1CN(CC(=O)N2CC(C)(C)c3cnc(Cc4ccccc4F)cc32)[C@@H](CN2CCOCC2)CN1 [Example 245, hydrochloride] too.
7.33

Same question for C[C@@H]1CN(CC(=O)N2CC(C)(C)c3ncc(Cc4ccccc4F)cc32)[C@@H](CN2CCOCC2)CN1 [Example 247, dihydrochloride] please.
7.18

Now the same for C[C@@H]1CN(CC(=O)N2CC(C)(C)c3ccc(Cl)cc32)[C@@H](Cn2cccn2)CN1 [Example 138, hydrochloride]
6.19

###

- Study system: BIR3 domain of human XIAP (residues 252-350) (Homo sapiens (Human))
- Assay overview: XIAP in vitro competitive displacement binding assay (fluorescence polarization)
- Conditions: read-out: IC50 or PI Xiap: IC50
Counter-ions that a name gives are not always drawn.
Form field: pIC50 (one value per entry).
Remember, pIC50 is on a log scale: it is -log10 of the molar concentration.

Before answering, review these 2 worked examples.
- Molecule: "COC[C@H]1CN[C@H](C)CN1CC(=O)N1CC(C)(c2ccccn2)c2ccc(C#N)cc21 (mixture of isomers)"
  Study system: "BIR3 domain of human XIAP (residues 252-350) (Homo sapiens (Human))"
  pIC50: 5.82
- Molecule: "COC[C@H]1CN[C@H](C)CN1CC(=O)N1CC(C)(C)c2cnc(C3=CCCC3)cc21 [Example 90, hydrochloride salt]"
  Study system: "BIR3 domain of human XIAP (residues 252-350) (Homo sapiens (Human))"
  pIC50: 6.57

// below: pIC50 requested for another molecule
For the record `C[C@@H]1CN(CC(=O)N2CC(C)(C)c3c(Cl)cccc32)CCN1` , what value of pIC50 is listed for BIR3 domain of human XIAP (residues 252-350) (Homo sapiens (Human))?
3.82

###

- Study system: BIR3 domain of human cIAP-1 (residues 267-363) (Homo sapiens (Human), UniProt Q13490)
- Assay overview: cIAP-1 in vitro competitive displacement binding assay (fluorescence polarization; Probe A AVPIK(5&6FAM)-amide or Probe B AbuRPFK(5&6FAM)-amide)
- Conditions: 3 h, read-out: IC50 or PI cIAP1: PI
Counter-ions that a name gives are not always drawn.
Mark yes (1) for reported inhibition at […] of 90% or greater; mark no (0) for anything smaller.

Past entries and their recorded results:
- Compound: "C[C@@H]1CN(CC(=O)N2CC(C)(C)c3cnc(Cc4ccc(F)cc4F)cc32)[C@@H](Cn2ccccc2=O)CN1 [Example 193, dihydrochloride]"
  Discrete label: "yes (1)"
- Compound: "C[C@@H]1CN(CC(=O)N2CC(C)(C)c3cnc(C(F)(F)c4ccccc4)cc32)[C@@H](CN2CCCC2=O)CN1 [Example 173, dihydrochloride]"
  Discrete label: "no (0)"
- Compound: "C[C@@H]1CN(CC(=O)N2CC(C)(C)c3ncc(C(F)(F)c4ccccc4)cc32)[C@@H](CN2CC[C@@H](F)C2)CN1 [Example 221, dihydrochloride]"
  Discrete label: "no (0)"

Next item in the queue.
Check if inhibition at […] >= 90% (inclusive). Item: C[C@@H]1CN(CC(=O)N2CC(C)(C)c3cnc(Cc4ccc(F)cc4F)cc32)[C@@H](Cn2cccnc2=O)CN1 [Example 185, dihydrochloride]
yes (1)
